# credit: ChEMBL document CHEMBL3877273

molecular target: UniProt:P29274; assay: Displacement of [3H]ZM241385 from recombinant human adenosine A2A receptor expressed in HEK293 cell membranes at 1 uM after 2 hrs by beta scintillation counting method relative to control
Quick list: inhibition per entry.
Write the value in % as a bare number.

Example molecules with recorded inhibition:
>  <sample-smiles>
Clc1cccc(-c2cnc(NC3CCCC3)nc2-c2ccccc2)c1

>  <quantity-measured>
inhibition

>  <units-label>
%

>  <reported-value>
23

$$$$
>  <sample-smiles>
OCCCNc1ncc(-c2cccc(Cl)c2)c(-c2ccccc2)n1

>  <quantity-measured>
inhibition

>  <units-label>
%

>  <reported-value>
9.5

$$$$
>  <sample-smiles>
Nc1ncc(-c2ccc(Cl)c(Cl)c2)c(-c2ccccc2)n1

>  <quantity-measured>
inhibition

>  <units-label>
%

>  <reported-value>
41

$$$$
>  <sample-smiles>
O[C@H]1CC[C@H](Nc2ncc(-c3cccc(Cl)c3)c(-c3ccccc3)n2)CC1

>  <quantity-measured>
inhibition

>  <units-label>
%

>  <reported-value>
1.4

$$$$

Now take the following molecule into account.
Endpoint output: inhibition of OCCCCNc1ncc(-c2cccc(Cl)c2)c(-c2ccccc2)n1 . Value? 13

* * *

Quick list: pKi per entry.
molecular target: Adenosine receptor A1 (Homo sapiens); assay: Displacement of [3H]DPCPX from recombinant human adenosine A1 receptor expressed in CHO cell membranes after 1 hr by beta scintillation counting method
Sequence (P30542 whole entry): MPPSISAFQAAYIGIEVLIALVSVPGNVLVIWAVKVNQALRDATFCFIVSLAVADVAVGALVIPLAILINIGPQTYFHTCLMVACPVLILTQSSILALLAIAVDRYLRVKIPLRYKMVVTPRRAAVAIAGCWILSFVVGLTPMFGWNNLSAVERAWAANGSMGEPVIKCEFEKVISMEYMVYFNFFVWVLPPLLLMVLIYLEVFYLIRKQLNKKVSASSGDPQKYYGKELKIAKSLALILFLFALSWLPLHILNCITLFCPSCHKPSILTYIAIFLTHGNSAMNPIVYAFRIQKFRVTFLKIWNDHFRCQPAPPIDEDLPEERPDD
Recall that pKi is obtained by taking minus log10 of the concentration measured in molar.

>  <sample-smiles>
Clc1cccc(-c2cnc(NC3CCCC3)nc2-c2ccccc2)c1

>  <pKi>
7.03

$$$$
>  <sample-smiles>
Nc1ncc(-c2ccc(O)c(O)c2)c(-c2ccccc2)n1

>  <pKi>
7.92

$$$$
>  <sample-smiles>
Nc1ncc(-c2ccnc(C3CC3)c2)c(-c2ccccc2)n1

>  <pKi>
8.75

$$$$
>  <sample-smiles>
COc1ccc(-c2cnc(N)nc2-c2ccccc2)cc1OC

>  <pKi>
6.98

$$$$
>  <sample-smiles>
OCCNc1ncc(-c2cccc(Cl)c2)c(-c2ccccc2)n1

>  <pKi>
6.74

$$$$
>  <sample-smiles>
CCCC(=O)Nc1ncc(-c2cccc(Cl)c2)c(-c2ccccc2)n1

>  <pKi>
6.97

$$$$
>  <sample-smiles>
Cc1cccc(-c2cnc(N)nc2-c2ccccc2)c1

>  <pKi>
6.69

$$$$
>  <sample-smiles>
Nc1ncc(-c2cccc(O)c2)c(-c2ccccc2)n1

>  <pKi>
6.84

$$$$
>  <sample-smiles>
Nc1ncc(-c2ccc(Cl)c(Cl)c2)c(-c2ccccc2)n1

>  <pKi>
7.42

$$$$
>  <sample-smiles>
Nc1ncc(-c2cccc(Cl)c2)c(-c2ccccc2)n1

>  <pKi>
7.26

$$$$

Endpoint output: pKi of Nc1ncc(-c2ccncc2)c(-c2ccccc2)n1 . Value? 7.77

* * *

Quick list: log10(Ki) per entry.
target: Adenosine receptor A1 (Homo sapiens); assay: Displacement of [3H]DPCPX from recombinant human adenosine A1 receptor expressed in CHO cell membranes after 1 hr by beta scintillation counting method
Could you please treat all values as log10 of Ki in nM?

>  <sample-smiles>
OCCCNc1ncc(-c2cccc(Cl)c2)c(-c2ccccc2)n1

>  <target-or-system>
Adenosine receptor A1 (Homo sapiens)

>  <log10(Ki)>
1.77

$$$$
>  <sample-smiles>
O[C@H]1CC[C@H](Nc2ncc(-c3cccc(Cl)c3)c(-c3ccccc3)n2)CC1

>  <target-or-system>
Adenosine receptor A1 (Homo sapiens)

>  <log10(Ki)>
1.48

$$$$

Endpoint output: log10(Ki) of Nc1ncc(-c2cccc(C(F)(F)F)c2)c(-c2ccccc2)n1 . Value? 1.15

And what about the compound Nc1ncc(-c2ccc(O)cc2)c(-c2ccccc2)n1 ? 0.15

And what about the compound Nc1ncc(-c2ccc(O)c(Cl)c2)c(-c2ccccc2)n1 ? -0.34

And what about the compound O[C@H]1CC[C@H](Nc2ncc(-c3ccnc(C4CC4)c3)c(-c3ccccc3)n2)CC1 ? 0.03

And what about the compound Nc1ncc(-c2ccc3ccccc3c2)c(-c2ccccc2)n1 ? 1.26

* * *

target: Adenosine receptor A2a (Homo sapiens, UniProt P29274); assay: Displacement of [3H]ZM241385 from recombinant human adenosine A2A receptor expressed in HEK293 cell membranes after 2 hrs by beta scintillation counting method
Sequence (P29274 whole entry): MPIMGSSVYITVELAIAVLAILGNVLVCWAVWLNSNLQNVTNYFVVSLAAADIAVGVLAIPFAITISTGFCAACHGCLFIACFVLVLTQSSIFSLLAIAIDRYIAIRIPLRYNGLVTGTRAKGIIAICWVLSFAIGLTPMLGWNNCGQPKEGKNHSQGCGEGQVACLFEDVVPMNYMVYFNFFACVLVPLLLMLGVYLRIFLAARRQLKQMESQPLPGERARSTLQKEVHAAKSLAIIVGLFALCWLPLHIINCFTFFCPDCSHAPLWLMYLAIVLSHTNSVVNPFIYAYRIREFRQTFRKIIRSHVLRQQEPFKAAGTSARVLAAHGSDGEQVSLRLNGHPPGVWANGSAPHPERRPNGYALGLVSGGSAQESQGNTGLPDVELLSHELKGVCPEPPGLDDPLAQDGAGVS
One threshold, 100 nM, splits the recorded Ki values: lower ones are yes, equal or higher ones are no.

>  <sample-smiles>
Nc1ncc(-c2ccc(O)c(O)c2)c(-c2ccccc2)n1

>  <target-or-system>
Adenosine receptor A2a (Homo sapiens, UniProt P29274)

>  <class>
yes

$$$$
>  <sample-smiles>
Nc1ncc(-c2ccc3ccccc3c2)c(-c2ccccc2)n1

>  <target-or-system>
Adenosine receptor A2a (Homo sapiens, UniProt P29274)

>  <class>
no

$$$$
>  <sample-smiles>
Nc1ncc(-c2ccncc2)c(-c2ccccc2)n1

>  <target-or-system>
Adenosine receptor A2a (Homo sapiens, UniProt P29274)

>  <class>
no

$$$$
>  <sample-smiles>
COc1cccc(-c2cnc(N)nc2-c2ccccc2)c1

>  <target-or-system>
Adenosine receptor A2a (Homo sapiens, UniProt P29274)

>  <class>
no

$$$$
>  <sample-smiles>
O[C@H]1CC[C@H](Nc2ncc(-c3ccnc(C4CC4)c3)c(-c3ccccc3)n2)CC1

>  <target-or-system>
Adenosine receptor A2a (Homo sapiens, UniProt P29274)

>  <class>
yes

$$$$

Now look at this one.
Given Nc1ncc(-c2cccc(Cl)c2)c(-c2ccccc2)n1 , is recorded Ki strictly lower than 100 nM? no

* * *

Quick list: log10 Ki per entry.
target: Adenosine receptor A2a (Homo sapiens, UniProt P29274); assay: Displacement of [3H]ZM241385 from recombinant human adenosine A2A receptor expressed in HEK293 cell membranes after 2 hrs by beta scintillation counting method
Could you please treat all values as log10 of Ki in nM?

Example compounds with recorded log10 Ki:
>  <sample-smiles>
Nc1ncc(-c2ccc(O)c(Cl)c2)c(-c2ccccc2)n1

>  <log10 Ki>
0.11

$$$$
>  <sample-smiles>
Nc1ncc(-c2ccnc(C3CC3)c2)c(-c2ccccc2)n1

>  <log10 Ki>
1.56

$$$$
>  <sample-smiles>
Oc1ccc(-c2cnc(N[C@H]3CC[C@H](O)CC3)nc2-c2ccccc2)cc1Cl

>  <log10 Ki>
0.86

$$$$
>  <sample-smiles>
Nc1ncc(-c2cccc(C(F)(F)F)c2)c(-c2ccccc2)n1

>  <log10 Ki>
1.99

$$$$
>  <sample-smiles>
Nc1ncc(-c2ccc(O)cc2)c(-c2ccccc2)n1

>  <log10 Ki>
0.11

$$$$

Endpoint output: log10 Ki of COc1ccc(-c2cnc(N)nc2-c2ccccc2)cc1Cl . Value? 2.40

* * *

Quick list: pKi per entry.
target: Adenosine receptor A1 (Homo sapiens); test: Displacement of [3H]DPCPX from recombinant human adenosine A1 receptor expressed in CHO cell membranes after 1 hr by beta scintillation counting method
Recall that pKi is obtained by taking minus log10 of the concentration measured in molar.

Example compounds with recorded pKi:
>  <sample-smiles>
OCCCCNc1ncc(-c2cccc(Cl)c2)c(-c2ccccc2)n1

>  <quantity-measured>
pKi

>  <reported-value>
6.89

$$$$
>  <sample-smiles>
COc1cccc(-c2cnc(N)nc2-c2ccccc2)c1

>  <quantity-measured>
pKi

>  <reported-value>
7.27

$$$$

Endpoint output: pKi of Nc1ncc(-c2ccc(F)cc2)c(-c2ccccc2)n1 . Value? 6.80
